pIC50: recorded values
# target_under_test: Glycogen phosphorylase, liver form (Homo sapiens, UniProt P06737)
# Sequence (P06737 whole entry): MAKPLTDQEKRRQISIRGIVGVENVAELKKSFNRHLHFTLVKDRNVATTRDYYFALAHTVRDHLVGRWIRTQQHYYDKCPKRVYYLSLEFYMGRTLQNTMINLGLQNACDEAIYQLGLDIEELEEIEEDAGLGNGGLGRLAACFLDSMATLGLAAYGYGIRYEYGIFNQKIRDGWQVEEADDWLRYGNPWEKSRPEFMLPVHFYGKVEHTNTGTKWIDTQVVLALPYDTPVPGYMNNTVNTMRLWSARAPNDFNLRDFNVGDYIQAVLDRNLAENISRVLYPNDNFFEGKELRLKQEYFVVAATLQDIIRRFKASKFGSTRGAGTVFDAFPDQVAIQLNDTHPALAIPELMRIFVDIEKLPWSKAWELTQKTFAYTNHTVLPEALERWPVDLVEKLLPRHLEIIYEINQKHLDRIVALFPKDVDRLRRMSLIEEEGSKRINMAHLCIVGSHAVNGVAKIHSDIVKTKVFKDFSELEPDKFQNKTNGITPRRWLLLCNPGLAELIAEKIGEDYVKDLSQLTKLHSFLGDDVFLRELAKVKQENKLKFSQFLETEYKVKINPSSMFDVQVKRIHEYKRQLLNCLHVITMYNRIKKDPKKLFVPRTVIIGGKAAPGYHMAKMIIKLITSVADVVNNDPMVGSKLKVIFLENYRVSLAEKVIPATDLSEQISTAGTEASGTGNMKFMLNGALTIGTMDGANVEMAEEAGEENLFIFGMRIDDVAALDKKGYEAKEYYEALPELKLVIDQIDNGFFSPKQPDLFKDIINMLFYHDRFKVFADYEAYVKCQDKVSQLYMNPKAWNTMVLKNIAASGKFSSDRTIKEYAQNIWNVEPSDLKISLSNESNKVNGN
# measurement_description: Inhibition of human liver glycogen phosphorylase a by coupled kinetic fluorescent intensity assay
pIC50: −log10 of the molar value.

given_smiles	target_under_test	pIC50
Cc1cc(C)c(NC(=O)Nc2cc(F)ccc2C(=O)N[C@H](C(=O)O)C2CCCCC2)c(C)c1	Glycogen phosphorylase, liver form (Homo sapiens, UniProt P06737)	6.84
Cc1cc(C)c(NC(=O)Nc2cc(F)ccc2C(=O)N[C@H](C(=O)O)[C@@H](C)OC(C)(C)C)c(C)c1	Glycogen phosphorylase, liver form (Homo sapiens, UniProt P06737)	6.30
CCCc1cc(C)c(NC(=O)Nc2cc(-c3ccc(F)c(F)c3)ccc2C(=O)N[C@H](C(=O)O)[C@@H](C)OC(C)(C)C)c(C)c1	Glycogen phosphorylase, liver form (Homo sapiens, UniProt P06737)	8.15
Cc1cc(C)c(NC(=O)Nc2cc(-c3ccc(F)c(F)c3)ccc2C(=O)N[C@H](C(=O)O)[C@@H](C)OC(C)(C)C)c(C)c1	Glycogen phosphorylase, liver form (Homo sapiens, UniProt P06737)	7.89
Cc1cc(C)c(NC(=O)Nc2ccccc2C(=O)N[C@H](C(=O)O)[C@@H](C)OC(C)(C)C)c(C)c1	Glycogen phosphorylase, liver form (Homo sapiens, UniProt P06737)	6.27
Cc1cccc(C)c1NC(=O)Nc1cc(F)ccc1C(=O)N[C@H](C(=O)O)C1CCCCC1	Glycogen phosphorylase, liver form (Homo sapiens, UniProt P06737)	5.97
Cc1cc(C)c(NC(=O)Nc2cc(-c3cccc(F)c3)ccc2C(=O)N[C@H](C(=O)O)[C@@H](C)OC(C)(C)C)c(C)c1	Glycogen phosphorylase, liver form (Homo sapiens, UniProt P06737)	7.82
CCc1cc(C)c(NC(=O)Nc2cc(F)ccc2C(=O)N[C@H](C(=O)O)C2CCCCC2)c(C)c1	Glycogen phosphorylase, liver form (Homo sapiens, UniProt P06737)	7.06
